Origin of the recorded values: the supplement of paper PMC10567573

B1: NR2F2 (parent)
chain: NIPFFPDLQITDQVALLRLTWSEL

- Variants of: B1
- PROTOCOL_SUMMARY: protein stability index of a GFP-peptide fusion (GPS, HEK-293T) (PSI 1-6); higher = more stable;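 further: lentivirally expressed fusions sorted by FACS into six bins by GFP to DsRed ratio, PSI derived from sequencing read proportions per bin multiplied by bin number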
- EXPERIMENTAL_SETUP: c terminus: a fixed tail appended
The threshold is inclusive: protein stability index of exactly 3 counts as true (1); values below receive false (0).

Answered cases to consult:
>>> df
   mutation_id      class
0          P3C  false (0)
1          I2D  false (0)
2          N1D   true (1)
3         A15T  false (0)
4         S22V  false (0)
5         Q13E  false (0)
6         T11F   true (1)
7          Q9I  false (0)

Query: Confirm if protein stability index reported for the variant F5A is 3 or above.
Result: false (0)

Query: Is the recorded value of protein stability index equal to or greater than 3 for this variant? F5P
Result: false (0)
